This collection of values is drawn from PubChem BioAssay AID1963873.

This listing pairs compounds with measured viability, T/C.
- Test system: 276233-004-R-J1-PDC KRAS spheroids with HUVEC/MSC, viability
- Method Summary: Anticancer human tumor 276233-004-R-J1-PDC patient-derived colon adenocarcinoma cell line growth inhibition [KRAS2]
- Cond: second compound 0.316 µM; first compound 0.316 µM; stronger effect = lower value
Lab book: enter the figure in %, no units written.

The cases that follow already have their viability, T/C on record.
compound="O=C(c1cc(Cc2n[nH]c(=O)c3ccccc23)ccc1F)N1CCN(C(=O)C2CC2)CC1 + C=CC(=O)N1CCN(c2nc(OCC3CCCN3C)nc3c2CCN(c2cccc4cccc(C)c24)C3)CC1CC#N" target_system="276233-004-R-J1-PDC KRAS spheroids with HUVEC/MSC, viability" recorded_metric="viability, T/C" reading=93.4
compound="O=C(c1cc(Cc2n[nH]c(=O)c3ccccc23)ccc1F)N1CCN(C(=O)C2CC2)CC1 + C=CC(=O)N1CCN(c2nc(=O)n(-c3c(C)ccnc3C(C)C)c3nc(-c4c(O)cccc4F)c(F)cc23)C(C)C1" target_system="276233-004-R-J1-PDC KRAS spheroids with HUVEC/MSC, viability" recorded_metric="viability, T/C" reading=108

Q: Which viability, T/C reading was recorded for the compound CC1OCC2(CCN(c3cnc(Sc4ccnc(N)c4Cl)c(N)n3)CC2)C1N (stereo not given) + CNCc1ccccc1-c1csc(C(C)Nc2nc(C)nc3cc(OC)c(OC)cc23)c1 ?
Ans: 68.6

Q: I would be grateful if you could share the reported viability, T/C for CC1(C)CCC(CN2CCN(c3ccc(C(=O)NS(=O)(=O)c4ccc(NCC5CCOCC5)c([N+](=O)[O-])c4)c(Oc4cnc5[nH]ccc5c4)c3)CC2)=C(c2ccc(Cl)cc2)C1 + CNCc1ccccc1-c1csc(C(C)Nc2nc(C)nc3cc(OC)c(OC)cc23)c1 .
Ans: 77.5

Q: # lookup: viability, T/C of CCNC(=O)CC1N=C(c2ccc(Cl)cc2)c2cc(OC)ccc2-n2c(C)nnc21 (stereo not given) + C=CC(=O)N1CCN(c2nc(OCC3CCCN3C)nc3c2CCN(c2cccc4cccc(C)c24)C3)CC1CC#N
Ans: 83.3

====

- Tested on: 276233-004-R-J1-PDC KRAS spheroids with HUVEC/MSC, viability
- Method Summary: Anticancer human tumor 276233-004-R-J1-PDC cell line growth inhibition [KRAS2];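 also: cells exposed to agents for seven days before viability read; 100% = DMSO vehicle control wells and lower values mean fewer viable cells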
- Cond: second compound 0.316 µM; first compound 1 µM; stronger effect = lower value
Just so you know, the groups by viability, T/C go like this: lower band: < 80%; central band: ≥ 80% and < 90%; upper band: ≥ 90%

molecule="Cn1nccc1Nc1nccc(-c2cc3c(s2)C(C)(C)N(CCN2CCOCC2)C3=O)n1 + CC1OCC2(CCN(c3cnc(Sc4ccnc(N)c4Cl)c(N)n3)CC2)C1N" class_assignment="lower band"

Q: Category of COC(=O)c1ccc2c(C(=Nc3ccc(N(C)C(=O)CN4CCN(C)CC4)cc3)c3ccccc3)c(O)[nH]c2c1 + C=CC(=O)N1CCN(c2nc(=O)n(-c3c(C)ccnc3C(C)C)c3nc(-c4c(O)cccc4F)c(F)cc23)C(C)C1 :
Ans: central band

Q: // bin(item) where item = CC(C)NCC(C(=O)N1CCN(c2ncnc3c2C(C)CC3O)CC1)c1ccc(Cl)cc1 (stereo not given) + C=CC(=O)N1CCN(c2nc(OCC3CCCN3C)nc3c2CCN(c2cccc4cccc(C)c24)C3)CC1CC#N
Ans: lower band
